Source of measurements: patent US7056679

Target: T1, lactate dehydrogenase (LDH)
T1 construct: Coated at 500 ng/well as non-specific target; also called LDH polypeptide
Test: phage ELISA
The following binders are shown together with reported LDH (OD) values.
Express your answer in OD, writing the number without its unit.

Recorded LDH (OD), per entry:
{"binder": "VQSGRDLGGLLRGGTGTEASPAAAGAPVPYPDPLEPRP [DGI-2-20F-PP-D3]", "result number": 0.9}
{"binder": "SSVWATWGSDLRTFGSVGFLAAAGAPVPYPDPLEPRP [DGI-2-20F-PP-C7]", "result number": 1.1}

(Q) Annotate the binder ERVSKCVGRGSGRSVGQFGGAAAGAPVPYPDPLEPRP [DGI-2-20F-PP-F1] with its measured LDH (OD).
(A) 0.9

(Q) Annotate the binder LFSATGCALMSGFCLGSDGSAAAGAPVPYPDPLEPRP [DGI-2-20R-3-C1] with its measured LDH (OD).
(A) 1

(Q) Annotate the binder GWSDFVATGSWSGQVSAALNAAAGAPVPYPDPLEPRP [DGI-2-20R-4-F120] with its measured LDH (OD).
(A) 1.1

(Q) Annotate the binder VCSGGKGTWLEIPDRVRSSTAAAGAPVPYPDPLEPRP [DGI-2-20F-PP-A22] with its measured LDH (OD).
(A) 1
